target: Voltage-dependent T-type calcium channel subunit alpha-1G (Homo sapiens)
experiment: Inhibition of Cav3.1 channel (unknown origin) assessed as reduction in peak currents at 10 uM by whole cell patch-clamp method
Measured inhibition of individual entries
Kindly answer with a numeric value in %, unit omitted.

Exercise: Reported inhibition, compound "COc1cc(CNCc2ccc(-c3cccc(C(F)(F)F)c3)o2)cc(OC)c1OC" : ____
Key: 86.6

###

target: Voltage-dependent N-type calcium channel subunit alpha-1B (Homo sapiens)
Sequence (Q00975 whole entry, looked up): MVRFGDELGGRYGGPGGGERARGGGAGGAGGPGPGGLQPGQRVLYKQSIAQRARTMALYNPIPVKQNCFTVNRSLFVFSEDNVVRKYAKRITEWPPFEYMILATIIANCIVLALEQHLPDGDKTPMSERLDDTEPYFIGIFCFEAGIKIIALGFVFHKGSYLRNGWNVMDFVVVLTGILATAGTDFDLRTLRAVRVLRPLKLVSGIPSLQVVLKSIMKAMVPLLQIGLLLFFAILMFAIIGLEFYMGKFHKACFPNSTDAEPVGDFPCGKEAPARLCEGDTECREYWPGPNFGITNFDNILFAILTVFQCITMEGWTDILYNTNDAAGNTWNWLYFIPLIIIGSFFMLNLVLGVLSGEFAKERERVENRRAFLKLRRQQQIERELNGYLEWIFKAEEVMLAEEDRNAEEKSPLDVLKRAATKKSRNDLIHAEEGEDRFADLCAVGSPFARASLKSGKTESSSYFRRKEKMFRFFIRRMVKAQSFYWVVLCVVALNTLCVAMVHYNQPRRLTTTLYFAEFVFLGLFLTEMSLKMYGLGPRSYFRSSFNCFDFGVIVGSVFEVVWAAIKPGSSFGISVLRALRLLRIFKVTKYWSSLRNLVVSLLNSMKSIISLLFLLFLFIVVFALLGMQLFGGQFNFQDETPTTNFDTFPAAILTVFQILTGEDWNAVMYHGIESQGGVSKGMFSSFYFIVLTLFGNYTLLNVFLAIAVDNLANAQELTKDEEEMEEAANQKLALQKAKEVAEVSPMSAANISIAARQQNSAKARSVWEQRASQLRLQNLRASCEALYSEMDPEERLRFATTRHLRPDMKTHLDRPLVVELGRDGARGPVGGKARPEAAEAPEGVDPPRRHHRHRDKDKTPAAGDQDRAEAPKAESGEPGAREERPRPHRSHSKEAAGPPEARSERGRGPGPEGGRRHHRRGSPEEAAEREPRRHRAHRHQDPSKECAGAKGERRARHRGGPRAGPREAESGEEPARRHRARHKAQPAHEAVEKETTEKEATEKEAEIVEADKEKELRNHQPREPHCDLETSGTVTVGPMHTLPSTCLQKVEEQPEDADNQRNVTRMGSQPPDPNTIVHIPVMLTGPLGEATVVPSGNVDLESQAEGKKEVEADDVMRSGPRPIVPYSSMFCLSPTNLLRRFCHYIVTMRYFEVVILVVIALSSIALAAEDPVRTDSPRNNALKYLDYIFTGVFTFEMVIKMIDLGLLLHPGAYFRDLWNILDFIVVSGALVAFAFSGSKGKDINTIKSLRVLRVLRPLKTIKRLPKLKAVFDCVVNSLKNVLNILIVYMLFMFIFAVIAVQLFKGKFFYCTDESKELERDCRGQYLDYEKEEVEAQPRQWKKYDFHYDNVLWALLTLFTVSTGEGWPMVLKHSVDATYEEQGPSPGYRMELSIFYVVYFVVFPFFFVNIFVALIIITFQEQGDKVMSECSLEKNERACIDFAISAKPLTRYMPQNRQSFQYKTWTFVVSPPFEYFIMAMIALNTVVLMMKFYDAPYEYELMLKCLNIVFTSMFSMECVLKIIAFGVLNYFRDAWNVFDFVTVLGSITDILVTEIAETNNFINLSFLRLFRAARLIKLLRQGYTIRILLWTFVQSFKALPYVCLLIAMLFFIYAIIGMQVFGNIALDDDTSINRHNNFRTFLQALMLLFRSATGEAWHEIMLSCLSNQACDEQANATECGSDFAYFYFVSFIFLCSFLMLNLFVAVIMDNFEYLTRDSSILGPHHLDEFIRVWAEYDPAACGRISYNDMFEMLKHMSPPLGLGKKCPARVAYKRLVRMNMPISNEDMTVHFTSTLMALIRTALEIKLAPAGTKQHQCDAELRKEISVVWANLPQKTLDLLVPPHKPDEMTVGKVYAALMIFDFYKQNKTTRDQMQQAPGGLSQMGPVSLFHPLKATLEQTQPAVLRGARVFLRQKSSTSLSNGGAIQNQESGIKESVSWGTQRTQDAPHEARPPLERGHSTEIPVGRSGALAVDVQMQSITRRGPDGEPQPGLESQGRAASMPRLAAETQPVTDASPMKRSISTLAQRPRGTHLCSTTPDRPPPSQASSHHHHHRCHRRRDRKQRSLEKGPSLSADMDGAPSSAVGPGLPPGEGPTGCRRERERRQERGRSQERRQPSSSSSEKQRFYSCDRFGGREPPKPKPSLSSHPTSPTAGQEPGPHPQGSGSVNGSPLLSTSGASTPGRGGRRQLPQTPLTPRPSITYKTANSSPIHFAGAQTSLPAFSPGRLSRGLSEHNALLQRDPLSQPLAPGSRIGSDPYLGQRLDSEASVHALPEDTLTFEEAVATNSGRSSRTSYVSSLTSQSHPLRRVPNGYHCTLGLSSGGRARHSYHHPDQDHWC
experiment: Inhibition of Cav2.2 channel (unknown origin) assessed as reduction in peak currents at 10 uM by whole cell patch-clamp method
experimental.endpoint: inhibition (%)
Kindly answer with a numeric value in %, unit omitted.

Exercise: Given the entry "COc1cc(CNCc2ccc(Oc3ccc(C#N)cc3)cc2)cc(OC)c1OC" , what inhibition was observed with Voltage-dependent N-type calcium channel subunit alpha-1B (Homo sapiens)?
Key: 54.9

Exercise: Again, but for "COc1cc(CNCc2c[nH]c3ccc(Cl)cc23)cc(OC)c1OC"
Key: 75.2

Exercise: Again, but for "COc1cc(CNCc2ccc(-c3ccc(Cl)cc3)o2)cc(OC)c1OC"
Key: 80.2

Exercise: Again, but for "N#Cc1ccc(Oc2ccc(-c3ccc(CNc4cccc(C(N)=O)c4)o3)cc2)cc1"
Key: 21.6

Exercise: Again, but for "COc1ccc(-c2ccc(CNCc3cc(OC)c(OC)c(OC)c3)o2)cc1Cl"
Key: 70.6

Exercise: Again, but for "COc1cc(CNCc2ccc(-c3cccc(C(F)(F)F)c3)o2)cc(OC)c1OC"
Key: 81.6

###

target: Voltage-dependent T-type calcium channel subunit alpha-1G (Homo sapiens, UniProt O43497)
Sequence (O43497 whole entry): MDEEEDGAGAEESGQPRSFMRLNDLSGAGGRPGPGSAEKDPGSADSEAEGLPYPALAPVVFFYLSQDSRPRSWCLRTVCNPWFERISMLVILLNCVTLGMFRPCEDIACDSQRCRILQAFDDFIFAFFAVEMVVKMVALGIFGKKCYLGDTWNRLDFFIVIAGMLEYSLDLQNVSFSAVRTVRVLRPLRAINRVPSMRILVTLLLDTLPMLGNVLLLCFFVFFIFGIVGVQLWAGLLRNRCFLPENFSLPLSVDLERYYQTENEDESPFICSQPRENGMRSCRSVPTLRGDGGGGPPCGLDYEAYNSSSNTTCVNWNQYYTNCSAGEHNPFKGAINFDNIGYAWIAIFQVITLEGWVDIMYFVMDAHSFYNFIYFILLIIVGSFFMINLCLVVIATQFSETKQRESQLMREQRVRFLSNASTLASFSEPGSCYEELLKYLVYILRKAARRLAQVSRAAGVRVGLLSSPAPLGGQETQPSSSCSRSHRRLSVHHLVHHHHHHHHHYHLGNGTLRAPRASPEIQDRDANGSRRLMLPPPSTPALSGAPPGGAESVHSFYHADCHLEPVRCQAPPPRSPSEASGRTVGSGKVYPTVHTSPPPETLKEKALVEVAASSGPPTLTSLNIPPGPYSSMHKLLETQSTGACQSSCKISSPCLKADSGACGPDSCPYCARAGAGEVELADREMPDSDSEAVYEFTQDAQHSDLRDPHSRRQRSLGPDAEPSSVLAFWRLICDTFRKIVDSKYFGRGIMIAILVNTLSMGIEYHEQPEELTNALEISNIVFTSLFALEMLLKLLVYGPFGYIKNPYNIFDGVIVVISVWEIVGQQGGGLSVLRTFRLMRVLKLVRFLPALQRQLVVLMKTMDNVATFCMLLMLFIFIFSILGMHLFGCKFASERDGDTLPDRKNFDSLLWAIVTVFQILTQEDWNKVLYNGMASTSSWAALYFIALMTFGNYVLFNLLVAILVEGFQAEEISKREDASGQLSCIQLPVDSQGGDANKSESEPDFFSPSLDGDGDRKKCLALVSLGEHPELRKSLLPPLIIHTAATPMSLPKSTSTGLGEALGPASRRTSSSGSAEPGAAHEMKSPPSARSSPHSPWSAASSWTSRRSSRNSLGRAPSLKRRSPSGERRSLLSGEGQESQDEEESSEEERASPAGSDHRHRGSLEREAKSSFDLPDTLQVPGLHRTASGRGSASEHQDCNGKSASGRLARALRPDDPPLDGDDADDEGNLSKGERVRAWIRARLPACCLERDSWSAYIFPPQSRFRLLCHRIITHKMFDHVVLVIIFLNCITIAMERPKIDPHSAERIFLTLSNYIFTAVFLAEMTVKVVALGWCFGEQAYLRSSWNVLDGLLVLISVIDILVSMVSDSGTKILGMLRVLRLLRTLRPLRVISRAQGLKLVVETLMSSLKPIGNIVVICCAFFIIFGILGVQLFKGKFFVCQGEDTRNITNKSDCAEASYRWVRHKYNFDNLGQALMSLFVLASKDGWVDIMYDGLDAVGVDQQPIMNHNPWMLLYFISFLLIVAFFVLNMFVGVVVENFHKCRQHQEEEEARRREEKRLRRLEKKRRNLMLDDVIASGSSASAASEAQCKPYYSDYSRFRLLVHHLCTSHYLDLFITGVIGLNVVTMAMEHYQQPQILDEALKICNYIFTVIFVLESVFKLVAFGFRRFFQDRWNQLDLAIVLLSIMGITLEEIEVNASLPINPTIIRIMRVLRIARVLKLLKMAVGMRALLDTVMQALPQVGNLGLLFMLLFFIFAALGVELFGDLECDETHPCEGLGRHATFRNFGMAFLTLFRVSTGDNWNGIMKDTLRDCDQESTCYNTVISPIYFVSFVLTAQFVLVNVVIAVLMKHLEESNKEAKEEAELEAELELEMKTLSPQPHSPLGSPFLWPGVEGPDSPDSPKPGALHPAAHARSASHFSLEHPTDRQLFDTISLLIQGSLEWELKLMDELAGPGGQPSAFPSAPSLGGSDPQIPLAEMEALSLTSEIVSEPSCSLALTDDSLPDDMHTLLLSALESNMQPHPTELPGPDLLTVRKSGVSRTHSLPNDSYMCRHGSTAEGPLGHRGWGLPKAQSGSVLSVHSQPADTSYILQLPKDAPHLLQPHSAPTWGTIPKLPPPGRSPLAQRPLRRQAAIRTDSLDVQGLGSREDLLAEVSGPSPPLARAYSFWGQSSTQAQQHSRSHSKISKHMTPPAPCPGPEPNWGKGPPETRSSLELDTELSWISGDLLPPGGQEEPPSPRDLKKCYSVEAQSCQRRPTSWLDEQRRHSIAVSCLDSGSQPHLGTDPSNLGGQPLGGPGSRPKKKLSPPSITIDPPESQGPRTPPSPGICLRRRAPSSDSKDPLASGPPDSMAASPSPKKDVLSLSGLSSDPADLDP
experiment: Inhibition of Cav3.1 channel (unknown origin) assessed as reduction in peak currents at 10 uM by whole cell patch-clamp method
experimental.endpoint: inhibition (%)
Kindly answer with a numeric value in %, unit omitted.

Example entries begin here.
> print(dat)
                            compound.string                                    target  experimental.endpoint  measured.value
1  COc1cc(CNCc2ccc(-c3ccc(Cl)cc3)o2)cc(OC)c1OC  Voltage-dependent T-type calcium channel subunit alpha-1G (Homo sapiens, UniProt O43497)             inhibition            91.3
2      NC(=O)c1cccc(NCc2ccc(N3CCOCC3)cc2)c1  Voltage-dependent T-type calcium channel subunit alpha-1G (Homo sapiens, UniProt O43497)             inhibition             4.1
3  COc1cc(CNCc2ccc(-c3cncnc3)cc2)cc(OC)c1OC  Voltage-dependent T-type calcium channel subunit alpha-1G (Homo sapiens, UniProt O43497)             inhibition            38.3
4  COc1ccc(-c2ccc(CNCc3cc(OC)c(OC)c(OC)c3)o2)cc1Cl  Voltage-dependent T-type calcium channel subunit alpha-1G (Homo sapiens, UniProt O43497)             inhibition            77.6
5  N#Cc1ccc(Oc2ccc(-c3ccc(CNc4cccc(C(N)=O)c4)o3)cc2)cc1  Voltage-dependent T-type calcium channel subunit alpha-1G (Homo sapiens, UniProt O43497)             inhibition              53

Exercise: Reported inhibition, compound "NC(=O)c1cccc(NCc2c[nH]c3ccc(Cl)cc23)c1" : ____
Key: 39.9

Exercise: Again, but for "COc1cc(CNCc2ccc(Oc3ccc(C#N)cc3)cc2)cc(OC)c1OC"
Key: 60.4

Exercise: Again, but for "COc1cc(CNCc2c[nH]c3ccc(Cl)cc23)cc(OC)c1OC"
Key: 64.2

Exercise: Again, but for "NC(=O)c1cccc(NCc2ccc(-c3cccc(C(F)(F)F)c3)o2)c1"
Key: 39.3

Exercise: Again, but for "COc1cc(CNCc2ccc(-c3ccncc3)cc2)cc(OC)c1OC"
Key: 21.9

Origin of values: ChEMBL document CHEMBL3612045
